# assayOverview: growth inhibitors of H69AR lung tumor, primary screen, human, duplicate replicates (AID 580);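 further: 100% = mean luminescence of untreated wells and 0% = no signal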
# conditionDetails: H69AR lung tumor cells viability, ATP luminescence, 72 h; at 10 µM; stronger effect = lower value
propertyMeasured: viability (%)
Provide the reading as a plain figure in %.

Request: Which viability reading was recorded for the compound CCOC(=O)C1CCN(c2cc(C)nc3cc(-c4cccc(F)c4)nn23)CC1 ?
Response: 90.4

Request: Which viability reading was recorded for the compound CN(C)C(CNc1nnnn1-c1ccccc1)c1ccco1 (stereo not given) ?
Response: 77.4

Request: Which viability reading was recorded for the compound COCCCn1c(SCC(=O)N2CCc3ccccc32)nnc1-c1ccoc1C ?
Response: 98.4

Request: Which viability reading was recorded for the compound Cc1ccc(CCSCC(=O)O)cn1 ?
Response: 101

Request: Which viability reading was recorded for the compound CCCCn1c(NC(=O)CC)c(C#N)c2nc3ccccc3nc21 ?
Response: 81.9

----------
# assayOverview: growth suppression of yeast trafficking mutant, preliminary HTS, modulators of trafficking downstream of Golgi apparatus project, 1536-format plate, OD 615 nm (AID 637)
# conditionDetails: yeast transport mutant growth, absorbance 615 nm, 18 h
Activity calls are given as the source filed them. Cut-off read from the data, not from the text of the source: active = inhibition above about 30%; inactive = the rest.
Respond using exactly one of the listed classes: active, inactive

Request: State the result this test recorded for CC1(C)CC(=O)C(C=Nc2ccncc2)=C(O)C1 .
Response: inactive

Request: State the result this test recorded for C=CCSc1nnc2n(-c3ccccc3OC)c(=O)c3c4c(sc3n12)CCC4 .
Response: inactive

Request: State the result this test recorded for Cc1c(O)c(CN2CCCC(C)C2)cc2c3c(c(=O)oc12)CCC3 (stereo not drawn) .
Response: inactive

Request: State the result this test recorded for CCNc1ccc(S(=O)(=O)C(F)(F)F)cc1NC(=O)C12CCC(CC1)C2 .
Response: inactive

Request: State the result this test recorded for N#CC1=C(N)N(c2ccc(Oc3ccccc3)cc2)C(=O)C1 .
Response: inactive

Request: State the result this test recorded for Cc1ccc(-c2nnc(N3CCN(C(=O)CN4C(=O)c5ccccc5C4=O)CC3)c3ccccc23)cc1 .
Response: inactive

Request: State the result this test recorded for CCOc1cc(C(=O)N(C)Cc2cc3ccccc3[nH]c2=O)cc(OCC)c1OCC .
Response: inactive

Request: State the result this test recorded for CC1(C)NC(=O)N(CN2C(=O)NC(C)(C)C2=O)C1=O .
Response: inactive

Request: State the result this test recorded for CC1Oc2ccccc2N(Cc2ccccc2Cl)C1=O (stereo not drawn) .
Response: inactive

Request: State the result this test recorded for COc1ccccc1C(=O)N1CCN(CCc2ccccc2)CC1 .
Response: inactive

Request: State the result this test recorded for CCn1cc(C(=O)N2CCN(C(=O)c3ccco3)CC2)c2cc(OC)c(OC)cc2c1=O .
Response: inactive

Request: State the result this test recorded for COC(=O)[C@H](C)NC(=O)Nc1cccc(C(F)(F)F)c1 .
Response: active

Request: State the result this test recorded for Cc1ccc(C2CC(c3cccc(Br)c3)Nc3nnnn32)cc1 (stereo not drawn) .
Response: inactive

Request: State the result this test recorded for OCCNC1=NCCN1 .
Response: inactive

Request: State the result this test recorded for Cc1nnc(SCc2cccc(Oc3ccccc3)c2)n1N .
Response: inactive

Request: State the result this test recorded for CCC(=O)Nc1cc(C)c(NC(=O)C23CC4CC(CC(C4)C2)C3)cn1 .
Response: inactive

Request: State the result this test recorded for COCCCN(Cc1ccccn1)S(=O)(=O)Cc1ccccc1 .
Response: inactive

Request: State the result this test recorded for CCOC(=O)N1CCC(Nc2c(-c3ccc(C)cc3)c(=O)c2=O)CC1 .
Response: inactive

Request: State the result this test recorded for CCN(CC(=O)NCc1cccs1)C(=O)c1cc(S(=O)(=O)N2CCOCC2)ccc1C .
Response: inactive

Request: State the result this test recorded for CCC(C(=O)Nc1ccccc1C(=O)N1CCCC1)N1C(=O)c2ccccc2C1=O (stereo not drawn) .
Response: inactive

Request: State the result this test recorded for COCCNC(=O)c1ccc(CS(=O)(=O)c2ccc(OC)cc2)o1 .
Response: inactive

Request: State the result this test recorded for CCCC(C)C1C(C#N)=C(N)Oc2cc(C)oc(=O)c21 (stereo not drawn) .
Response: inactive

Request: State the result this test recorded for Cc1cc(=O)oc2ccc(OCC(=O)N(Cc3ccc(F)cc3)Cc3ccco3)cc12 .
Response: inactive

Request: State the result this test recorded for CC(=O)OCC(=O)[C@H]1CC[C@H]2[C@@H]3CC=C4C[C@@H](O)CC[C@]4(C)[C@H]3CC[C@]12C .
Response: active

Request: State the result this test recorded for Cc1ccc(S(=O)(=O)N2CCOCC2)cc1C(=O)Nc1ccc(-c2cn3ccsc3n2)cc1 .
Response: inactive

Request: State the result this test recorded for CCn1cnc2cc(NCc3cccc(OC)c3O)ccc21 .
Response: inactive

Request: State the result this test recorded for CCC(C)NC(=O)CSC1=Nc2ccccc2C2=NC(CC(=O)NCc3ccccc3)C(=O)N12 (stereo not drawn) .
Response: inactive

Request: State the result this test recorded for CC(=O)[C@H]1CC[C@H]2[C@@H]3CCC4=CC(=O)CC[C@]4(C)[C@H]3[C@H](O)C[C@]12C .
Response: inactive

Request: State the result this test recorded for N#Cc1c(N2CCCC2)nc(N)c2c(N)nc(N3CCCC3)cc12 .
Response: inactive

Request: State the result this test recorded for Cc1ccc(C)c(C(=O)CC2(O)C(=O)Nc3ccccc32)c1 (stereo not drawn) .
Response: inactive

Request: State the result this test recorded for COC(=O)c1c(NC(=O)CSc2nnnn2C)sc(C)c1C .
Response: inactive

Request: State the result this test recorded for COC(=O)C1=C(C)NC(C)=C(C(=O)OC)C1c1ccccc1[N+](=O)[O-] .
Response: inactive

Request: State the result this test recorded for COC(=O)c1[nH]c2ccc(C)cc2c1NC(=O)CN1CCCc2ccccc21 .
Response: inactive

Request: State the result this test recorded for O=C(CSc1nc2ccccc2[nH]1)N1CCCCC1 .
Response: inactive

Request: State the result this test recorded for O=C(O)CCC(=O)Nc1nc(-c2ccccc2)cs1 .
Response: inactive

Request: State the result this test recorded for COc1ccc(CCn2c(N)c(C#N)c3nc4ccccc4nc32)cc1OC .
Response: inactive

Request: State the result this test recorded for Cc1cc(C)c(C#N)c(SCc2ccc(C#N)cc2)n1 .
Response: inactive

Request: State the result this test recorded for C=CCSC1=C(C#N)C(c2ccccc2C)CC(=O)N1 (stereo not drawn) .
Response: inactive
